- System: DERL-7 (IL-2 2.5 ng/mL);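 also: normalised to DMSO-only wells as negative and benzethonium chloride as positive control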
- experimental_details: percent inhibition of viability; higher = more inhibition
- test_conditions: 72 h; 10000 nM
value_type: percent inhibition of viability (%)

In [3]: df
Out[3]:
                                    compound  reading_unit  endpoint_value
 0  CCn1c(=O)c(-c2cc[nH]n2)cc2c(C)nc(N)nc21 [Voxtalisib] (max concentration tested 10000 nM)             %            90.5
 1  O=c1[nH]cc(F)c(=O)[nH]1 [Fluorouracil] (max concentration tested 10000 nM)             %            60.8
 2  O=C(Nc1cccc(C(F)(F)F)c1)Nc1cc(S(=O)(=O)NC2CC2)ccc1-c1ccsc1 [AGI-6780] (max concentration tested 10000 nM)             %            42.2
 3  O=C(Nc1ccc(-c2ccnc(Nc3ccc(N4CCOCC4)cc3)n2)cc1)C1CCCN1 (stereo not drawn) [XL019] (max concentration tested 10000 nM)             %            71.8
 4  c1ccc2c(CCNc3ccc(Nc4ccncc4)cc3)c[nH]c2c1 [Serdemetan] (max concentration tested 10000 nM)             %            99.8
 5  FC(F)c1nc2ccccc2n1-c1nc(N2CCOCC2)nc(N2CCOCC2)n1 [ZSTK474] (max concentration tested 10000 nM)             %            81.7
 6  C=C1C[C@@H]2[C@H](CC[C@]3(C)C(=O)CC[C@@H]23)[C@@]2(C)C=CC(=O)C=C12 [Exemestane] (max concentration tested 10000 nM)             %            26.2
 7  O=C1CN2Cc3c(ccc(Cl)c3Cl)N=C2N1 [Anagrelide] (max concentration tested 10000 nM)             %           -3.54
 8  O=C(Nc1cccnc1)N1CCC(Cc2cccc(Oc3ccc(C(F)(F)F)cn3)c2)CC1 [PF-3845] (max concentration tested 10000 nM)             %            46.1
 9  CNC(=O)c1ccc(N2C(=S)N(c3cnc(C#N)c(C(F)(F)F)c3)C(=O)C23CCC3)cc1F [ARN 509] (max concentration tested 10000 nM)             %           -12.6
10  Nc1ccccc1NC(=O)c1ccc(CNC(=O)OCc2cccnc2)cc1 [Entinostat] (max concentration tested 10000 nM)             %            99.7
11  CCc1cncnc1N1CCN(Cc2nc3ccc(C(F)(F)F)cc3[nH]2)CC1 (max concentration tested 10000 nM)             %            14.8
12  Cc1cnc(Nc2ccc(OCCN3CCCC3)cc2)nc1Nc1cccc(S(=O)(=O)NC(C)(C)C)c1 (max concentration tested 10000 nM)             %             101
